System: A498 renal
Assay remarks: NCI-60 one-dose screen, 48 h
Applied conditions: 10 µM unless noted
About 83,000 compounds went through this panel and 20% of them were active in at least one assay; those are over-represented in the sample as a whole. Calls of active or inactive are those of the source. Rule for the calls: active = growth percent below 10; inactive = the rest.
API: response.call in yes for active, no for inactive

Fill in: this test's call for `O=C1c2c(c3c4cc(O)ccc4oc3c3[nH]c4ccccc4c23)C(=O)N1O` is ___ yes

Fill in: this test's call for `Oc1ccc(CSc2nnc(-c3cnccn3)n2-c2ccccc2)c2cccnc12` is ___ no

Fill in: this test's call for `CC[C@]12C=CCN3CC[C@]4(C(=C(C(=O)OC)C1)Nc1cc5c(cc14)[C@@H]1[C@H](O5)[C@@H](O)[C@@]4(CC)CC(C(=O)OC)=C5Nc6cc(OC)ccc6[C@@]56CCN1[C@@H]46)[C@@H]32` is ___ yes

Fill in: this test's call for `CC(C)N=C(N/C(N)=N/c1nc2ccccc2s1)NC(C)C` is ___ no
